// pKd lookup, one value per entry
EXPERIMENTAL TARGET: T1, GFP-9S library array, motif 4 ND N98S;D124S (synthetic construct, N98S;D124S)
T1 chain: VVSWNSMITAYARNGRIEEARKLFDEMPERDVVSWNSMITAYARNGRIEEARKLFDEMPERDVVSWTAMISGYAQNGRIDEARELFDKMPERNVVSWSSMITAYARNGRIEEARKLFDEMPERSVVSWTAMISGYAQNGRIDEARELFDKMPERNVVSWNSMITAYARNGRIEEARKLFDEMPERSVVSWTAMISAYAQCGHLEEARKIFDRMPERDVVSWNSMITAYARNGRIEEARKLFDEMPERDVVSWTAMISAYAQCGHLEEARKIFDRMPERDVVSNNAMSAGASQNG
ASSAY NOTES: high-throughput RNA pulldown from lysate on Ni-NTA beads; HRP: 50 mM Tris pH 8, 150 mM NaCl, 1 mM beta-mercaptoethanol, 50 ug/ml BSA, 3 ug/ml yeast RNA, 0.5% heparin; ITC and FP: Tris pH 8, 200 mM KCl, 5% glycerol; MST: 50 mM Tris pH 8, 200 mM NaCl, 1 mM DTT, BSA, heparin, 0.05% Tween 20
CONDITION CONTEXT: tags: N-terminal His-eGFP; label: 5' IRDye 800CW
pKd: −log10 of the molar value.
RESULT TYPE: pKd

BINDER: AUUAUACGUGA (ssRNA) [IR-rpoA-U]
REPORTED RESULT: 7.16
//
BINDER: AUUAAACGUGA (ssRNA) [IR-rpoA-A]
REPORTED RESULT: 7.18
